B1: MFF (parent)
chain: DDLTVVDAASLRRQIIKLNRRLQL

# Variants of: B1
# protocol-notes: protein stability index of a GFP-peptide fusion (GPS, HEK-293T) (PSI 1-6); higher = more stable;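 also: lentivirally expressed fusions sorted by FACS into six bins by GFP to DsRed ratio, PSI derived from sequencing read proportions per bin multiplied by bin number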
# condition-label: c terminus: a fixed tail appended
recorded-metric: protein stability index

biopolymer_sequence="DNLTVVDAASLRRQIIKLNRRLQL [D2N]" obs_value=2.22
biopolymer_sequence="DKLTVVDAASLRRQIIKLNRRLQL [D2K]" obs_value=2.3
biopolymer_sequence="DDLTVVDTASLRRQIIKLNRRLQL [A8T]" obs_value=1.69
biopolymer_sequence="DDLTVVDAASLRRQIIKLNRRLLL [Q23L]" obs_value=2.15
biopolymer_sequence="DTLTVVDAASLRRQIIKLNRRLQL [D2T]" obs_value=2.31
biopolymer_sequence="DDLTVVDAASLRRQIIKYNRRLQL [L18Y]" obs_value=3.26
